settings: 8 h; 50 µg mL^-1 peptide in 10-fold diluted human WSS; RP-HPLC C18, UV 280 nm
Ends that are not written are not given here.
outcome.measure: HPLC peak of intact peptide after 8 h (in words)

- substance: "WKRHHGYK [Peptide 7WH5]"
  meas.value: "still detectable"
- substance: "WKRHHGY [Peptide 6WH5]"
  meas.value: "still detectable"
- substance: "WKRHHGYKR [Peptide 8WH5]"
  meas.value: "still detectable"
